- Test Method Notes: folding stability dG unfold (combined trypsin and chymotrypsin); higher = more stable
// reported folding stability dG unfold for each item listed
Report the figure in kcal/mol without appending any unit label.

>  <Sequence Input>
SAGGSAMTITVTLTFKSEEEALAAIRELAEALGLEIESVEIRYDPETEEVTVTATIRLPPPPPELLSAGGSA [r15_254_TrROS_Hall]

>  <Readout Units>
kcal/mol

>  <folding stability dG unfold>
2.75

$$$$
>  <Sequence Input>
SAGGMIAPDEKVLVKVTLSEGTTSRELEFEFEVPPGATEEELKQRVIDEIPEEPRKNWKVEVEIKPVSAGGS [r16_321_JUSTAS]

>  <Readout Units>
kcal/mol

>  <folding stability dG unfold>
0.596

$$$$

Give a short answer stating reported folding stability dG unfold for SAGGNIKIKLKGKIYDLNSNKYYDVEIEYDPKTGKAIITTPKGLKFEINPKEKKAEIPSKNYALEIGSAGGS [r16_743_TrMRF] . 1.2

Give a short answer stating reported folding stability dG unfold for SAGGMTVVSTETDTATGRPVRTVRLPPEASLRELAALDGWVRLVDPAPDREVELPAEDPEAVVEALLASAGG [r13_604_JUSTAS] . -0.504

Give a short answer stating reported folding stability dG unfold for SAGGSAGGSSMEVVTPIERPVDVTSPENGEVVKVRVKTLVGKDPNAWTTETTLTLPDGTPVALSAGGSAGGS [r12_283_JUSTAS] . 0.337

Give a short answer stating reported folding stability dG unfold for SAGGSAGGSAGMTLEELERLGYKVEVFRHPDTPEVYVRVEYPVPPGGLKRAVIPLKDVKLSAGGSAGGSAGG [r17_311_TrMRF] . 0.499
